- Tested on: HT29 cells
- testSummary: Cellular uptake of Pt by ICP-MS
- Assay type: cell-based
- condition: HT29, 3 µM, 1 h
- Description: A final concentration of 10^6 cells/well of MDA−MB−231 and HT29 cells were seeded in 6-well plates and incubated overnight to adhere. The cells were then treated with a final concentration of 3 µM of either Pt^II or Pt^IV complexes. After 0, 0.5, 1, 3, 6, 12, 24 or 30 h, the medium was removed, and the cells were washed three times with cold PBS and allowed to dry. […] The results represent an average of three different experiments run in triplicate (±SEM) and expressed as nmol/10^6 cells or µM/cell. […]
measuredMetric: Intracellular Concentration
Kindly report the value followed by its unit.

Use these answered entries as a reference point.
>  <compoundStructure>
Cc1c(C)c2cccnc2c2ncccc12.N[C@H]1CCCC[C@@H]1N.O=[N+]([O-])[O-].O=[N+]([O-])[O-].[OH][Pt+2][OH]

>  <Intracellular Concentration>
0.28 nmol/10^6 cells

$$$$
>  <compoundStructure>
Cc1cc2cccnc2c2ncccc12.N[C@H]1CCCC[C@@H]1N.O=[N+]([O-])[O-].O=[N+]([O-])[O-].[OH][Pt+2][OH]

>  <Intracellular Concentration>
0.28 nmol/10^6 cells

$$$$

Would you kindly look at the next entry?
Tell me the measured Intracellular Concentration of `Cc1c(C)c2cccnc2c2ncccc12.N[C@H]1CCCC[C@@H]1N.O=[N+]([O-])[O-].O=[N+]([O-])[O-].[Pt+2]` , please. 1.38 nmol/10^6 cells

###

I'd appreciate it if you could supply p21/GAPDH normalized to control (1) values for the items below.
- Tested on: HT29 cells
- testSummary: Western blot protein expression
- Type: cell-based
- condition: HT29, IC50, 72 h, representative blot Figure S29D
- Method: Protein extraction was then performed on ice. Media were collected in Eppendorf tubes, and centrifuged at 500× g for 5 min at 4 °C. […] Blot images were obtained using the Odyssey® FC imaging system (LI-COR Biosciences, Lincoln, NE, USA) and band intensities were quantified relatively to glyceraldehyde-3-phosphate dehydrogenase (GAPDH) and then normalised each replicate gel to its corresponding no treatment control using the ImageJ v1.53t software (National Institutes of Health, Bethesda, MD, USA). […]
Answers are plain numbers.

Look up p21/GAPDH normalized to control (1) for the entries below, preserving their order.
1. Cc1c(C)c2cccnc2c2ncccc12.N[C@H]1CCCC[C@@H]1N.O=[N+]([O-])[O-].O=[N+]([O-])[O-].[Pt+2]
2. Cc1cc2cccnc2c2ncccc12.N[C@H]1CCCC[C@@H]1N.O=[N+]([O-])[O-].O=[N+]([O-])[O-].[OH][Pt+2][OH]
3. Cc1c(C)c2cccnc2c2ncccc12.N[C@H]1CCCC[C@@H]1N.O=[N+]([O-])[O-].O=[N+]([O-])[O-].[OH][Pt+2][OH]
4. N[C@H]1CCCC[C@@H]1N.O=[N+]([O-])[O-].O=[N+]([O-])[O-].[Pt+2].c1cnc2c(c1)ccc1cccnc12
5. N.N.[Cl][Pt][Cl] [Cisplatin, cisplatin]

[1.281, 2.658, 2.808, 3.18, 2.964]

Hi, could you look up p21/GAPDH normalized to control (1) for each item in my list?
1. Cc1cc2cccnc2c2ncccc12.N[C@H]1CCCC[C@@H]1N.O=[N+]([O-])[O-].O=[N+]([O-])[O-].[Pt+2]
2. N[C@H]1CCCC[C@@H]1N.O=[N+]([O-])[O-].O=[N+]([O-])[O-].[OH-].[OH-].[Pt+4].c1cnc2c(c1)ccc1cccnc12

1: 1.147; 2: 3.293

###

Hi there, I'd appreciate the recorded Intracellular/extracellular ratio for every entry that follows.
- Test system: MDA−MB−231 cells
- testSummary: Cellular uptake of Pt by ICP-MS
- Format: cell-based
- condition: MDA−MB−231, extracellular 3 µM, 3 h
Answers are plain numbers.

>  <compoundStructure>
Cc1cc2cccnc2c2ncccc12.N[C@H]1CCCC[C@@H]1N.O=[N+]([O-])[O-].O=[N+]([O-])[O-].[OH][Pt+2][OH]

>  <measuredMetric>
Intracellular/extracellular ratio

>  <reportedMeasurement>
40.45

$$$$
>  <compoundStructure>
N[C@H]1CCCC[C@@H]1N.O=[N+]([O-])[O-].O=[N+]([O-])[O-].[Pt+2].c1cnc2c(c1)ccc1cccnc12

>  <measuredMetric>
Intracellular/extracellular ratio

>  <reportedMeasurement>
127.55

$$$$

Now let's try a different one.
Give the reported Intracellular/extracellular ratio for `N[C@H]1CCCC[C@@H]1N.O=[N+]([O-])[O-].O=[N+]([O-])[O-].[OH-].[OH-].[Pt+4].c1cnc2c(c1)ccc1cccnc12` (system: MDA−MB−231 cells). 26.14

###

Assign Intracellular Concentration to each entry below.
- Tested on: MDA−MB−231 cells
- testSummary: Cellular uptake of Pt by ICP-MS
- Format: cell-based
- condition: MDA−MB−231, 3 µM, 12 h
One number for each entry, in nmol/10^6 cells.

>  <molecule>
N[C@H]1CCCC[C@@H]1N.O=[N+]([O-])[O-].O=[N+]([O-])[O-].[OH-].[OH-].[Pt+4].c1cnc2c(c1)ccc1cccnc12

>  <Intracellular Concentration (nmol/10^6 cells)>
0.63

$$$$
>  <molecule>
Cc1c(C)c2cccnc2c2ncccc12.N[C@H]1CCCC[C@@H]1N.O=[N+]([O-])[O-].O=[N+]([O-])[O-].[Pt+2] [Pt^II56MESS]

>  <Intracellular Concentration (nmol/10^6 cells)>
4.80

$$$$

Field: next molecule
Would you mind telling me what Intracellular Concentration value was observed for `N[C@H]1CCCC[C@@H]1N.O=[N+]([O-])[O-].O=[N+]([O-])[O-].[Pt+2].c1cnc2c(c1)ccc1cccnc12` ? 2.59

###

- Test system: MDA−MB−231 cells
- testSummary: Western blot protein expression
- Type: cell-based
- condition: MDA−MB−231, IC50, 72 h, representative blot Figure S27B
- Description: Protein extraction was then performed on ice. Media were collected in Eppendorf tubes, and centrifuged at 500× g for 5 min at 4 °C. […] Blot images were obtained using the Odyssey® FC imaging system (LI-COR Biosciences, Lincoln, NE, USA) and band intensities were quantified relatively to glyceraldehyde-3-phosphate dehydrogenase (GAPDH) and then normalised each replicate gel to its corresponding no treatment control using the ImageJ v1.53t software (National Institutes of Health, Bethesda, MD, USA). […]
measuredMetric: ATG5/GAPDH normalized to control (1)
Answers are plain numbers.

>  <compound>
Cc1c(C)c2cccnc2c2ncccc12.N[C@H]1CCCC[C@@H]1N.O=[N+]([O-])[O-].O=[N+]([O-])[O-].[Pt+2]

>  <ATG5/GAPDH normalized to control (1)>
0.4012

$$$$
>  <compound>
N[C@H]1CCCC[C@@H]1N.O=[N+]([O-])[O-].O=[N+]([O-])[O-].[OH-].[OH-].[Pt+4].c1cnc2c(c1)ccc1cccnc12

>  <ATG5/GAPDH normalized to control (1)>
1.129

$$$$
>  <compound>
Cc1c(C)c2cccnc2c2ncccc12.N[C@H]1CCCC[C@@H]1N.O=[N+]([O-])[O-].O=[N+]([O-])[O-].[OH][Pt+2][OH]

>  <ATG5/GAPDH normalized to control (1)>
0.8924

$$$$

The following compounds each have a reported value; give each one's ATG5/GAPDH normalized to control (1).
1. Cc1cc2cccnc2c2ncccc12.N[C@H]1CCCC[C@@H]1N.O=[N+]([O-])[O-].O=[N+]([O-])[O-].[OH][Pt+2][OH]
2. N.N.[Cl][Pt][Cl] [Cisplatin, cisplatin]
3. N[C@H]1CCCC[C@@H]1N.O=[N+]([O-])[O-].O=[N+]([O-])[O-].[Pt+2].c1cnc2c(c1)ccc1cccnc12
4. Cc1cc2cccnc2c2ncccc12.N[C@H]1CCCC[C@@H]1N.O=[N+]([O-])[O-].O=[N+]([O-])[O-].[Pt+2]

1.065
0.8216
0.7762
0.5948

###

Would you kindly list Intracellular/extracellular ratio for each of these compounds?
- System: MDA−MB−231 cells
- testSummary: Cellular uptake of Pt by ICP-MS
- Type: cell-based
- condition: MDA−MB−231, extracellular 3 µM, 6 h
One number for each entry.

>  <compound>
Cc1cc2cccnc2c2ncccc12.N[C@H]1CCCC[C@@H]1N.O=[N+]([O-])[O-].O=[N+]([O-])[O-].[Pt+2] [Pt^II5MESS]

>  <reportedMeasurement>
196.09

$$$$
>  <compound>
N[C@H]1CCCC[C@@H]1N.O=[N+]([O-])[O-].O=[N+]([O-])[O-].[Pt+2].c1cnc2c(c1)ccc1cccnc12

>  <reportedMeasurement>
161.09

$$$$

I would be grateful if you could provide Intracellular/extracellular ratio for each of the following entries.
1. Cc1cc2cccnc2c2ncccc12.N[C@H]1CCCC[C@@H]1N.O=[N+]([O-])[O-].O=[N+]([O-])[O-].[OH][Pt+2][OH] [Pt^IV5MESS(OH)2]
2. N[C@H]1CCCC[C@@H]1N.O=[N+]([O-])[O-].O=[N+]([O-])[O-].[OH-].[OH-].[Pt+4].c1cnc2c(c1)ccc1cccnc12
3. Cc1c(C)c2cccnc2c2ncccc12.N[C@H]1CCCC[C@@H]1N.O=[N+]([O-])[O-].O=[N+]([O-])[O-].[OH][Pt+2][OH] [Pt^IV56MESS(OH)2]
4. Cc1c(C)c2cccnc2c2ncccc12.N[C@H]1CCCC[C@@H]1N.O=[N+]([O-])[O-].O=[N+]([O-])[O-].[Pt+2] [Pt^II56MESS]

1. 46.47
2. 38.82
3. 142.93
4. 296.93
